Assay: ThT aggregation kinetics and AFM/TEM imaging of NAC peptides
Type: physicochemical
Conditions: summary table
attribute measured: Key observations: nucleation

NAC11: truncated NAC peptide corresponding to αSyn 68–78, the minimal toxic core (GAVVTGVTAVA)	Rapid nucleation
NAC16: truncated NAC peptide corresponding to αSyn 63–78 (VTNVGGAVVTGVTAVA)	Rapid nucleation

* * *

Assay: ThT aggregation kinetics and AFM/TEM imaging of NAC peptides
Assay type: physicochemical
Details: 100 μM peptide, 15 μM ThT, 1× PBS pH 7.2, 37 °C, 1000 rpm, 48–72 h, ThT fluorescence; n = 3
attribute measured: aggregation (ThT kinetics)

NAC8: shortest NAC peptide, eight residues, corresponding to αSyn 72–79 (TGVTAVAQ)	did not aggregate
NAC12: truncated NAC peptide corresponding to αSyn 71–82 (VTGVTAVAQKTV)	did not aggregate
NAC17: truncated NAC peptide corresponding to αSyn 79–95 (QKTVEGAGSIAAATGFV)	did not aggregate
